Provide the reported DC50 of each item.
Biological target: WEE1 (Homo sapiens, UniProt P30291+Q96SW2)
Construct: C-terminal ePL-tagged (DiscoverX, Fremont, CA) full-length WEE1 expression construct; expressed in transfected cells; host or cells: LentiX-HEK293T (Invitrogen), lentivirally transduced; the cells also over-express GSPT1-GN
Sequence (P30291 whole entry): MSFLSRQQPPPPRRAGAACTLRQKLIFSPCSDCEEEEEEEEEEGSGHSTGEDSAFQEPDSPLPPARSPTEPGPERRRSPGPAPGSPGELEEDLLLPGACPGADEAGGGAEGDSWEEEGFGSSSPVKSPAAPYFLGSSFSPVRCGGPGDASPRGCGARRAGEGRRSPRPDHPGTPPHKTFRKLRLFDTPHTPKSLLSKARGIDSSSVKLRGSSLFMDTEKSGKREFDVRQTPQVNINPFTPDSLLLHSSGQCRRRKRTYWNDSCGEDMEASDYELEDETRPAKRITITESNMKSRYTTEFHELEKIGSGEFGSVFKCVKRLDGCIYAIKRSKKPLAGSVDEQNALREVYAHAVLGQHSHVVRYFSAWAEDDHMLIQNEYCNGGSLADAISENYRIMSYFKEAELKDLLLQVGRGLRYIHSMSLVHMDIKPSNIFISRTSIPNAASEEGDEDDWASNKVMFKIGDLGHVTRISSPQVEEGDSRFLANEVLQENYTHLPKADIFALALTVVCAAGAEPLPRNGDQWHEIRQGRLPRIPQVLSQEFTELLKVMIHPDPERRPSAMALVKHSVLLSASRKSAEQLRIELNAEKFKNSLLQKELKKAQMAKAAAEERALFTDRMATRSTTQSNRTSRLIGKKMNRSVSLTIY
Sequence (Q96SW2 whole entry): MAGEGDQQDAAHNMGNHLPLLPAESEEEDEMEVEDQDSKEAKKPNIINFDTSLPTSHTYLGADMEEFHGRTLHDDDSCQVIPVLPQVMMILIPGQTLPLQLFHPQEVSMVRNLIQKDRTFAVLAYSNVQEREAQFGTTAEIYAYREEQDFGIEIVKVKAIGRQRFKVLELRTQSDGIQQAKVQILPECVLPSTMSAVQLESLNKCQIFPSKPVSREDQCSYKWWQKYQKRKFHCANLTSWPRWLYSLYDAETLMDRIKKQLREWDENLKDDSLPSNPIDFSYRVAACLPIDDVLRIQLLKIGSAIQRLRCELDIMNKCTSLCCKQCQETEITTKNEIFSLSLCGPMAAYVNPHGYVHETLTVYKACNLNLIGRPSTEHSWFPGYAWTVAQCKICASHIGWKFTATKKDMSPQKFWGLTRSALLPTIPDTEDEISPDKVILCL
Sequence (Q16531 whole entry partner): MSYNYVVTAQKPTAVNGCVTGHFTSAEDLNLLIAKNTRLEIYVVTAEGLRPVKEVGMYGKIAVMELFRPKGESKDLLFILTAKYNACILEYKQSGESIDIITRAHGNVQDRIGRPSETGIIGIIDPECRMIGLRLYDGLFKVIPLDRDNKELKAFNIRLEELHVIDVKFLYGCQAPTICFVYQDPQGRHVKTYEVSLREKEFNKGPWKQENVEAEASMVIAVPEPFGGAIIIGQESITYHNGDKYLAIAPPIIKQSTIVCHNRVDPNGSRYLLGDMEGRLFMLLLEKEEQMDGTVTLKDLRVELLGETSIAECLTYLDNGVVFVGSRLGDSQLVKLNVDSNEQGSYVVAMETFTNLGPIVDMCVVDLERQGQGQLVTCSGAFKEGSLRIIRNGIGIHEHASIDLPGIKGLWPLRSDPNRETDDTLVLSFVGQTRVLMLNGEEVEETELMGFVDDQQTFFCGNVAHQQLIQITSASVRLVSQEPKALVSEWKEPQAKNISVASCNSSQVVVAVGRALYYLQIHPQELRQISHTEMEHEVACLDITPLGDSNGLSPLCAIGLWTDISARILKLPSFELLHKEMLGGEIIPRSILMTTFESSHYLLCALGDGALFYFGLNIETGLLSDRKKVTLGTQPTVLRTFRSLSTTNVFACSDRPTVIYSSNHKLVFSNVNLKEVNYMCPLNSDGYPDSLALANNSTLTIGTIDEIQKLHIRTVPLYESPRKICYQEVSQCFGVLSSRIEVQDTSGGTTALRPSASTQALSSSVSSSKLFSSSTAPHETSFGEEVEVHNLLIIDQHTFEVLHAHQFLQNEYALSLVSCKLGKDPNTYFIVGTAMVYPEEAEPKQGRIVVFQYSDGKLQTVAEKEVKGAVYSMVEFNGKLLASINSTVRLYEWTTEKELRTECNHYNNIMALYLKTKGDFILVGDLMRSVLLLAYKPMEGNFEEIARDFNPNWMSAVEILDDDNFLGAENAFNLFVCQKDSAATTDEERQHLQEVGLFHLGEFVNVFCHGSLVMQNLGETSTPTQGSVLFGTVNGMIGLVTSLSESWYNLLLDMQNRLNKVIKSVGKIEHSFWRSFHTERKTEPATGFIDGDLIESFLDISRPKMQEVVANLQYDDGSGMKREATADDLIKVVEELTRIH
Test: WEE1-ePL degradation assay (293T-LentiX, InCELL Hunter luminescence, 4 hr)
Format: cell-based
Details: LentiX-HEK293T cells expressing WEE1-ePL, 4 hr incubation; read-out: 293T-LentiX WEE1-ePL Degradation 4 hr EC50
Answers are plain numbers, in nM.

COC[C@@H]1CN(Cc2cc(F)c3nc(COC4CCN(C)CC4)ncc3c2)C[C@H]1Oc1ccc2c(c1)CN([C@H]1CCC(=O)NC1=O)C2=O	133
COC[C@@H]1CN(Cc2cc(F)c3nc(N4CCC(O)CC4)ccc3c2)C[C@H]1Oc1ccc2c(c1)CN([C@H]1CCC(=O)NC1=O)C2=O	1
COC[C@@H]1CN(Cc2cc(F)c3nc(C4CN(C(C)=O)C4)ccc3c2)C[C@H]1Oc1ccc2c(c1)CN([C@H]1CCC(=O)NC1=O)C2=O	9
COC[C@@H]1CN(Cc2cc3ccc(N4CCN(C(C)=O)C5(CC5)C4)cc3cn2)C[C@H]1Oc1ccc2c(c1)CN([C@H]1CCC(=O)NC1=O)C2=O	3

Report DC50 for each item below.
1. COC[C@@H]1CN(Cc2cc3ccc(N4CCN(C(C)=O)C5(COC5)C4)cc3cn2)C[C@H]1Oc1ccc2c(c1)CN([C@H]1CCC(=O)NC1=O)C2=O
2. COC[C@@H]1CN(Cc2ccc3nc(N4CCN(C(C)=O)C5(CC5)C4)ccc3c2)C[C@H]1Oc1ccc2c(c1)CN([C@H]1CCC(=O)NC1=O)C2=O
3. COC[C@@H]1CN(Cc2ccc3ccc(N4CCOCC4)nc3c2)C[C@H]1Oc1ccc2c(c1)CN([C@H]1CCC(=O)NC1=O)C2=O

Response line:
1: 11; 2: 1; 3: 8

I have 4 molecules here; please give me DC50 for each one.
1. COC[C@@H]1CN(Cc2cc(F)c3nc(C4CCCO4)ccc3c2)C[C@H]1Oc1ccc2c(c1)CN(C1CCC(=O)NC1=O)C2=O (relative stereo)
2. COC[C@@H]1CN(Cc2cc(F)c3nc(CC(C)(C)O)ncc3c2)C[C@H]1Oc1ccc2c(c1)CN([C@H]1CCC(=O)NC1=O)C2=O
3. O=C1CC[C@H](N2Cc3cc(O[C@@H]4CN(Cc5cc(F)c6nc(C7CCOCC7)ccc6c5)C[C@H]4CO)ccc3C2=O)C(=O)N1
4. COC[C@@H]1CN(Cc2cc(F)c3nc(COC4CCN(C)CC4)ccc3c2)C[C@H]1Oc1ccc2c(c1)CN([C@H]1CCC(=O)NC1=O)C2=O

Response line:
[1, 8, 2, 4]
